Field: activity (%) at 10 μM. Provide a value for each of the molecules that follow.
- study_target: human M1 receptor (hCHRM1) (Homo sapiens)
- Construct: expressed in transfected cells; host or cells: CHO-K1
- Sequence (P11229 1-460): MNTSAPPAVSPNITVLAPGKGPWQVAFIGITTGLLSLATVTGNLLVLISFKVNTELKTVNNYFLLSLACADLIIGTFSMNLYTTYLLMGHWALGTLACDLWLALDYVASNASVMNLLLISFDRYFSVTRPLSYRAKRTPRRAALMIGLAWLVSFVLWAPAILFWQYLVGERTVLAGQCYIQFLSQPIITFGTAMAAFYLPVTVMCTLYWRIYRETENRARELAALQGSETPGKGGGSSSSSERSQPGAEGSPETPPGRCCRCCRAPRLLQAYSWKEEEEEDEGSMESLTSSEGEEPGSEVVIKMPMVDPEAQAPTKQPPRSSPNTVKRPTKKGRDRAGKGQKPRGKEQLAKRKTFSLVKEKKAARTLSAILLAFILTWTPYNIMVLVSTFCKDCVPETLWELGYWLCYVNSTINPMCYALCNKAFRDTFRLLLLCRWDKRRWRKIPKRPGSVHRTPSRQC
- experiment_notes: Measurement of M1 receptor positive allosteric modulator (M1PAM) activity, calcium fluorescence (FLIPRtetra) in CHO-K1 cells in the presence of acetylcholine at EC20
- Format: cell-based
- measurement_setup: test compound 10 μM, in the presence of acetylcholine at EC20 (final 0.6 nM), CHO-K1 cells expressing hCHRM1
# value in %; strip the unit string

In one line, give reported activity (%) at 10 μM of the entry Cc1cc(-c2ccc(CN3Cc4ccnc(OCC5CCCO5)c4C3=O)cc2)cnn1 (centres unmarked) .
108

In one line, give reported activity (%) at 10 μM of the entry O=C1c2c(ccnc2OCC2CCCO2)CN1Cc1ccc(-c2cnn(CC(F)(F)F)c2)cc1 (centres unmarked) .
99

In one line, give reported activity (%) at 10 μM of the entry "Cc1nn(C)cc1-c1ccc(CN2Cc3ccnc(Oc4c(F)cccc4Cl)c3C2=O)cc1" .
108

In one line, give reported activity (%) at 10 μM of the entry "Cc1cc(-c2ccc(CN3Cc4ccnc(Oc5c(C)cc(F)cc5F)c4C3=O)cc2)cnn1" .
91

In one line, give reported activity (%) at 10 μM of the entry "Cc1cc(-c2ccc(CN3Cc4ccnc(OCc5ccccc5F)c4C3=O)c(F)c2)cnn1" .
97

In one line, give reported activity (%) at 10 μM of the entry "Cn1ccc(-c2ccc(CN3Cc4ccnc(Oc5ccc(C(F)(F)F)cc5C#N)c4C3=O)cc2)n1" .
98

In one line, give reported activity (%) at 10 μM of the entry "CCCc1ccc(Oc2nccc3c2C(=O)N(Cc2ccc(C(N)=O)c(F)c2)C3)c(F)c1" .
102

In one line, give reported activity (%) at 10 μM of the entry "Cn1ccc(-c2ccc(CN3Cc4ccnc(Oc5ccc(C(F)(F)F)cc5F)c4C3=O)cc2)n1" .
94

###

- study_target: human M1 receptor (hCHRM1) (Homo sapiens, UniProt P11229)
- Construct: expressed in transfected cells; host or cells: CHO-K1
- Sequence (P11229 1-460): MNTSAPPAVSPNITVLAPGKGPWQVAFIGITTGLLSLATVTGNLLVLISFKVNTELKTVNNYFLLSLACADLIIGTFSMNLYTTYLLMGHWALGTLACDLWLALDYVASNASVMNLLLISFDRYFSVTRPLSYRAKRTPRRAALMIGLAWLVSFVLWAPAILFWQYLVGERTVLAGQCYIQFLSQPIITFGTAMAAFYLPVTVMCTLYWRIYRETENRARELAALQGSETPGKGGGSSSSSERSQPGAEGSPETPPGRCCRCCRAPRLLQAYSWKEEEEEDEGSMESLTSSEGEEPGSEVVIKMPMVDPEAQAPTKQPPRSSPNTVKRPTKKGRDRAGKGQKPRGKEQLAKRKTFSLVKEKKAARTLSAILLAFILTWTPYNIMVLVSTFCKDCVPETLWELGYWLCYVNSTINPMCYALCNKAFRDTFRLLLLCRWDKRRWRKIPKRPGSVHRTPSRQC
- experiment_notes: Measurement of M1 receptor positive allosteric modulator (M1PAM) activity, calcium fluorescence (FLIPRtetra) in CHO-K1 cells in the presence of acetylcholine at EC20
- Assay type: cell-based
- measurement_setup: test compound 10 μM, in the presence of acetylcholine at EC20 (final 0.6 nM), CHO-K1 cells expressing hCHRM1
Field: activity (%) at 10 μM. Provide a value for each of the compounds that follow.
# value in %; strip the unit string

In one line, give reported activity (%) at 10 μM of the entry O=C1c2c(ccnc2OCC2CCCO2)CN1Cc1ccc(Br)cc1 (stereo not shown) .
94

In one line, give reported activity (%) at 10 μM of the entry Cc1nn(C)cc1-c1ccc(CN2Cc3ccnc(O[C@H]4CCCC[C@@H]4O)c3C2=O)cc1 (relative stereo) .
94

In one line, give reported activity (%) at 10 μM of the entry "Cc1nn(C)cc1-c1ccc(CN2Cc3ccnc(OCCn4cccn4)c3C2=O)cc1" .
104

In one line, give reported activity (%) at 10 μM of the entry "Cc1nn(C)cc1-c1ccc(CN2Cc3ccnc(Oc4c(F)cc(C#N)cc4F)c3C2=O)cc1" .
85

In one line, give reported activity (%) at 10 μM of the entry CCC(O)COc1nccc2c1C(=O)N(Cc1ccc(-c3cn(C)nc3C)cc1)C2 (single isomer, unassigned) [Example 277] .
96

In one line, give reported activity (%) at 10 μM of the entry O=C1c2c(ccnc2O[C@@H]2CCCC[C@H]2O)CN1Cc1cc(F)ccc1F (single isomer, unassigned) .
104

In one line, give reported activity (%) at 10 μM of the entry "CCNC(=O)c1ccc(CN2Cc3ccnc(Oc4ccc(C(F)(F)F)cc4F)c3C2=O)cc1" .
92

###

Field: log10 of EC50. Provide a value for each of the compounds that follow.
- study_target: human M1 receptor (hCHRM1) (Homo sapiens, UniProt P11229)
- experiment_notes: Measurement of M1 receptor positive allosteric modulator (M1PAM) activity, calcium fluorescence (FLIPRtetra) in CHO-K1 cells in the presence of acetylcholine at EC20
- measurement_setup: inflection point of M1PAM activity, in the presence of acetylcholine at EC20 (final 0.6 nM), CHO-K1 cells expressing hCHRM1; read-out: IP value
Would you kindly interpret these values as log10 of EC50 expressed in nM?

In one line, give reported log10 of EC50 of the entry Cc1nn(C)cc1-c1ccc(CN2Cc3ccnc(OCCn4cccn4)c3C2=O)cc1 [Example 225] .
1.71

In one line, give reported log10 of EC50 of the entry Cn1ccc(-c2ccc(CN3Cc4ccnc(O[C@H]5CCC[C@@H]5O)c4C3=O)c(F)c2)n1 (relative stereo) [Example 236] .
1.00

In one line, give reported log10 of EC50 of the entry Cc1cc(-c2ccc(CN3Cc4cccc(Oc5c(F)cccc5C#N)c4C3=O)cc2)ccn1 [Example 72] .
1.94

In one line, give reported log10 of EC50 of the entry Cn1cc(-c2ccc(CN3Cc4ncnc(Oc5c(F)cccc5Cl)c4C3=O)cc2)cn1 [Example 396] .
1.52

In one line, give reported log10 of EC50 of the entry N#Cc1cccc(F)c1Oc1cccc2c1C(=O)N(Cc1ccc(-n3cccn3)cc1)C2 [Example 66] .
1.84

In one line, give reported log10 of EC50 of the entry O=C1c2c(ccnc2O[C@H]2CCC[C@@H]2O)CN1Cc1ccc(-n2cccn2)cc1 (relative stereo) [Example 77] .
1.59

In one line, give reported log10 of EC50 of the entry O=C1c2c(cccc2O[C@@H]2COCC[C@H]2O)CN1Cc1ccc(F)cc1F (single isomer, unassigned) [Example 301] .
2.08

In one line, give reported log10 of EC50 of the entry Cn1ccc(-c2ccc(CN3Cc4ccnc(Oc5ccc(C(F)F)cc5F)c4C3=O)cc2)n1 [Example 380] .
1.34

In one line, give reported log10 of EC50 of the entry CC(C)n1cc(-c2ccc(CN3Cc4ccnc(Oc5c(F)cc(C#N)cc5F)c4C3=O)cc2)cn1 [Example 384] .
0.89

In one line, give reported log10 of EC50 of the entry Cn1ccc(-c2ccc(CN3Cc4ncnc(Oc5ccc(C#N)cc5F)c4C3=O)cc2)n1 [Example 371] .
1.11

In one line, give reported log10 of EC50 of the entry Cc1nn(C)cc1-c1ccc(CN2Cc3ccnc(O[C@@H]4CCC[C@H]4O)c3C2=O)cc1 (single isomer, unassigned) [Example 255] .
1.68

In one line, give reported log10 of EC50 of the entry O=C1c2c(ccnc2OCC2CCCO2)CN1Cc1ccc(-c2ccnc(C(F)(F)F)c2)cc1 (stereo not shown) [Example 325] .
1.67

In one line, give reported log10 of EC50 of the entry O=C1c2c(OCC3CCCO3)ccnc2CN1Cc1ccc(-n2cccn2)cc1 (stereo not shown) [Example 60] .
2.51

In one line, give reported log10 of EC50 of the entry CCCc1ccc(Oc2nccc3c2C(=O)N(Cc2ccc(C(N)=O)cc2)C3)c(F)c1 [Example 450] .
1.00

In one line, give reported log10 of EC50 of the entry CNC(=O)c1ccc(CN2Cc3ccnc(Oc4ccc(Br)cc4F)c3C2=O)cc1F [Example 442] .
1.58

In one line, give reported log10 of EC50 of the entry CNC(=O)c1ccc(CN2Cc3ccnc(Oc4ccc(C(F)(F)F)cc4F)c3C2=O)cc1 [Example 431] .
0.83

In one line, give reported log10 of EC50 of the entry CCn1cc(-c2ccc(CN3Cc4ccnc(OC5CCC5)c4C3=O)cc2)cn1 [Example 404] .
1.72

In one line, give reported log10 of EC50 of the entry Cn1cc(-c2ccc(CN3Cc4cccc(Oc5c(Cl)cccc5C#N)c4C3=O)cc2)cn1 [Example 9] .
1.53

In one line, give reported log10 of EC50 of the entry Cc1nn(C)cc1-c1ccc(CN2Cc3ccnc(Oc4c(F)cccc4Cl)c3C2=O)c(F)c1 [Example 280] .
1.41

In one line, give reported log10 of EC50 of the entry NC(=O)c1ccc(CN2Cc3ccnc(Oc4ccc(C5CC5)cc4F)c3C2=O)cc1F [Example 446] .
1.41

In one line, give reported log10 of EC50 of the entry Cc1cc(-c2ccc(CN3Cc4ccnc(Oc5c(C)cc(F)cc5F)c4C3=O)cc2)cnn1 [Example 358] .
1.89

In one line, give reported log10 of EC50 of the entry Cn1cc(-c2ccc(CN3Cc4ccnc(Oc5ccc(OC(F)(F)F)cc5F)c4C3=O)cc2)cn1 [Example 362] .
1.48

In one line, give reported log10 of EC50 of the entry Cc1cc(-c2ccc(CN3Cc4ncnc(Oc5c(F)cc(F)cc5F)c4C3=O)cc2)ccn1 [Example 367] .
1.45

In one line, give reported log10 of EC50 of the entry Cn1ccc(-c2ccc(CN3Cc4ccnc(OCC5CCCO5)c4C3=O)cc2)n1 (single isomer, unassigned) [Example 245] .
1.76

In one line, give reported log10 of EC50 of the entry Cn1ccc(-c2ccc(CN3Cc4ccnc(Oc5c(F)cc(C#N)cc5F)c4C3=O)cc2)n1 [Example 375] .
1.00

In one line, give reported log10 of EC50 of the entry O=C1c2c(cccc2O[C@H]2CCCC[C@@H]2O)CN1Cc1ccc(-c2ccn[nH]2)cc1 (relative stereo) [Example 31] .
0.93

In one line, give reported log10 of EC50 of the entry Cn1cnc(-c2ccc(CN3Cc4ccnc(Oc5ccc(C(F)(F)F)cc5F)c4C3=O)cc2)c1 [Example 419] .
0.86

In one line, give reported log10 of EC50 of the entry O=C1c2c(cccc2O[C@@H]2CCOC[C@H]2O)CN1Cc1ccc(F)cc1F (single isomer, unassigned) [Example 299] .
1.26

In one line, give reported log10 of EC50 of the entry O=C1c2c(cccc2O[C@H]2CCCC[C@@H]2O)CN1Cc1ccc(-c2ccnnc2)cc1 (relative stereo) [Example 352] .
0.64

In one line, give reported log10 of EC50 of the entry Cn1cc(-c2ccc(CN3Cc4nccc(OCC5CCCO5)c4C3=O)cc2)cn1 (stereo not shown) [Example 59] .
1.76

In one line, give reported log10 of EC50 of the entry Cc1cc(-c2ccc(CN3Cc4ccnc(OCC5CCOC5)c4C3=O)cc2)ccn1.Cl (stereo not shown) [Example 266, hydrochloride] .
1.65
